system: Conscious guinea pigs exposed to an aerosol of methacholine; assay: Methacholine aerosol collapse time in conscious guinea pigs (anticholinergic test); format: in vivo; conditions: collapse time; 25 mg/kg intraperitoneally; 10 minutes methacholine aerosol; Control 1.9 to 2.0
Binary call on (Minutes Protection) with cut-off 3 min: strictly below means YES, and equality or higher means NO.

These recorded examples may help you get a feel for the data.
1) CC(C)(C)c1ccc2c3c(c(=O)oc2c1)CN(CCN1CC2CCC(CC2)C1)CC3.Cl.Cl [R1=H, R2=CMe3, R3=H, X=drawing 10]; NO
2) COc1cc2oc(=O)c3c(c2cc1OC)CCN(CCN1CC2CCC1CC2)C3 [R1=MeO, R2=MeO, R3=H, X=drawing 11]; NO
3) Cc1cc2oc(=O)c3c(c2cc1N)CCN(CCN1CC2CCC(CC2)C1)C3 [R1=NH2, R2=Me, R3=H, X=drawing 10]; YES

Now look at this entry.
INPUT: Is (Minutes Protection) strictly under 3 min for the entry CCOc1cc2oc(=O)c3c(c2cc1OCC)CCN(CCN1CC2CCC(CC2)C1)C3 [R1=EtO, R2=EtO, R3=H, X=drawing 10] ?
OUTPUT: NO
